List of Ki tested on Rhodesain (Trypanosoma brucei rhodesiense, UniProt Q95PM0).
Sequence (Q95PM0 whole entry): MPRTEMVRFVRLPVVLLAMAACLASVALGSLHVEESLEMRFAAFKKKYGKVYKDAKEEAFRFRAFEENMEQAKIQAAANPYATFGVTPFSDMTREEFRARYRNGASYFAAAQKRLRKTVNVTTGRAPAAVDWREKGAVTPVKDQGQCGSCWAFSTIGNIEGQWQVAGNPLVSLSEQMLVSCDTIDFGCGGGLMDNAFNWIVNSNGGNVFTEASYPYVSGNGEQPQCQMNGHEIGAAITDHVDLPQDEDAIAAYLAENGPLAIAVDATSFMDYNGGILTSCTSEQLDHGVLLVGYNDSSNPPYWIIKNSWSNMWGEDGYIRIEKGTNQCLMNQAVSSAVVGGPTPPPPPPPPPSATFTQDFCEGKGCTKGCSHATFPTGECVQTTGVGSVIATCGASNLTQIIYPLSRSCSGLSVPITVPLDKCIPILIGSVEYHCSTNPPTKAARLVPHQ
Property name: Ki

INSERT INTO assay_data (molecule_smiles, property_name, endpoint_value) VALUES
  ('CC(=O)/C=C/[C@H](CCc1ccccc1)NC(=O)[C@H](Cc1ccccc1)NC(=O)c1ccccc1F', 'Ki', '0.003 nM'),
  ('CC(=O)/C=C/[C@H](CCc1ccccc1)NC(=O)[C@H](Cc1ccccc1)NC(=O)c1cccc(F)c1', 'Ki', '0.023 nM'),
  ('CC(=O)/C=C/[C@H](CCc1ccccc1)NC(=O)[C@H](Cc1ccccc1)NC(=O)c1c(F)cccc1F', 'Ki', '0.0076 nM'),
  ('CC(=O)/C=C/[C@H](CCc1ccccc1)NC(=O)[C@H](Cc1ccccc1)NC(=O)N1CCN(C)CC1', 'Ki', '1.8 nM');

* * *

molecular target: Procathepsin L (Homo sapiens); experiment: Inhibition of human Cathepsin L assessed as second order rate constant obtained from ratio of Kinact to Ki using Cbz-Phe-Arg-AMC as substrate by fluorescence assay
Sequence (P07711 114-333 limits assumed): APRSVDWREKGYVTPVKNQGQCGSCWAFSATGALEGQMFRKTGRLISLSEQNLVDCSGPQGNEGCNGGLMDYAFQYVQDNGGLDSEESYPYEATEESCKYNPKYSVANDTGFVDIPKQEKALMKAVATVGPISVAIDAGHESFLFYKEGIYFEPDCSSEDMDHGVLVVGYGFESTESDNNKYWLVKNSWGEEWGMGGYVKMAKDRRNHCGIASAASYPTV
Property name: K (×10³ /M/min)

INSERT INTO measurements (molecule_smiles, measure_unit, endpoint_value) VALUES
  ('CC(=O)/C=C/[C@H](CCc1ccccc1)NC(=O)[C@H](Cc1ccccc1)NC(=O)c1ccc2c(c1)OCCO2', '×10³ /M/min', 102),
  ('CC(=O)/C=C/[C@H](CCc1ccccc1)NC(=O)[C@H](Cc1ccccc1)NC(=O)N1CCN(C)CC1', '×10³ /M/min', 31),
  ('CC(=O)/C=C/[C@H](CCc1ccccc1)NC(=O)[C@H](Cc1ccccc1)NC(=O)c1ccc(Cl)cc1', '×10³ /M/min', 3030),
  ('CC(=O)/C=C/[C@H](CCc1ccccc1)NC(=O)[C@H](Cc1ccccc1)NC(=O)c1ccc(C(F)(F)F)cc1', '×10³ /M/min', 380),
  ('CC(=O)/C=C/[C@H](CCc1ccccc1)NC(=O)[C@H](Cc1ccccc1)NC(=O)c1ccc(F)cc1', '×10³ /M/min', 1230),
  ('CC(=O)/C=C/[C@H](CCc1ccccc1)NC(=O)[C@H](Cc1ccccc1)NC(=O)c1ccccc1F', '×10³ /M/min', 313),
  ('CC(=O)/C=C/[C@H](CCc1ccccc1)NC(=O)[C@H](Cc1ccccc1)NC(=O)c1c(F)cccc1F', '×10³ /M/min', 8.9),
  ('CCC(=O)/C=C/[C@H](CCc1ccccc1)NC(=O)[C@H](Cc1ccccc1)NC(=O)OCc1ccccc1', '×10³ /M/min', 67);

* * *

Listed next: entries and their corresponding Kinact.
biological target: Rhodesain (Trypanosoma brucei rhodesiense); test: Inhibition of Trypanosoma brucei rhodesiense rhodesain expressed in Pichia pastoris assessed as first-order rate constant measured for 30 mins using Cbz-Phe-Arg-AMC as substrate by fluorescence assay
Property name: Kinact

INSERT INTO measurements (molecule_smiles, property_name, endpoint_value) VALUES
  ('CC(=O)/C=C/[C@H](CCc1ccccc1)NC(=O)[C@H](Cc1ccccc1)NC(=O)c1c(F)cccc1F', 'Kinact', '0.0012 min⁻¹'),
  ('CCC(=O)/C=C/[C@H](CCc1ccccc1)NC(=O)[C@H](Cc1ccccc1)NC(=O)OCc1ccccc1', 'Kinact', '0.00082 min⁻¹'),
  ('CC(=O)/C=C/[C@H](CCc1ccccc1)NC(=O)[C@H](Cc1ccccc1)NC(=O)N1CCOCC1', 'Kinact', '0.00049 min⁻¹'),
  ('CC(=O)/C=C/[C@H](CCc1ccccc1)NC(=O)[C@H](Cc1ccccc1)NC(=O)c1ccc2c(c1)OCO2', 'Kinact', '0.0005 min⁻¹'),
  ('CC(=O)/C=C/[C@H](CCc1ccccc1)NC(=O)[C@H](Cc1ccccc1)NC(=O)c1ccccc1F', 'Kinact', '0.0006 min⁻¹'),
  ('CC(=O)/C=C/[C@H](CCc1ccccc1)NC(=O)[C@H](Cc1ccccc1)NC(=O)c1ccc(F)cc1F', 'Kinact', '7e-05 min⁻¹'),
  ('CC(=O)/C=C/[C@H](CCc1ccccc1)NC(=O)[C@H](Cc1ccccc1)NC(=O)c1ccc(F)cc1', 'Kinact', '0.0009 min⁻¹'),
  ('CC(=O)/C=C/[C@H](CCc1ccccc1)NC(=O)[C@H](Cc1ccccc1)NC(=O)c1cccc(F)c1', 'Kinact', '0.0032 min⁻¹'),
  ('CC(=O)/C=C/[C@H](CCc1ccccc1)NC(=O)[C@H](Cc1ccccc1)NC(=O)N1CCN(C)CC1', 'Kinact', '0.00042 min⁻¹'),
  ('CC(=O)/C=C/[C@H](CCc1ccccc1)NC(=O)[C@H](CCc1ccccc1)NC(=O)OCc1ccccc1', 'Kinact', '0.00072 min⁻¹'),
  ('CC(=O)/C=C/[C@H](CCc1ccccc1)NC(=O)[C@H](Cc1ccccc1)NC(=O)Cc1ccc2c(c1)OCO2', 'Kinact', '0.00085 min⁻¹'),
  ('CC(=O)/C=C/[C@H](CCc1ccccc1)NC(=O)[C@H](Cc1ccccc1)NC(=O)c1cc(F)cc(F)c1', 'Kinact', '0.0016 min⁻¹'),
  ('CC(=O)/C=C/[C@H](CCc1ccccc1)NC(=O)[C@H](Cc1ccccc1)NC(=O)c1ccc(C(F)(F)F)cc1', 'Kinact', '0.00075 min⁻¹'),
  ('CC(=O)/C=C/[C@H](CCc1ccccc1)NC(=O)[C@H](Cc1ccccc1)NC(=O)c1ccc(Cl)cc1', 'Kinact', '0.0008 min⁻¹'),
  ('CC(=O)/C=C/[C@H](CCc1ccccc1)NC(=O)[C@H](Cc1ccccc1)NC(=O)c1ccc2c(c1)OCCO2', 'Kinact', '0.0043 min⁻¹');

These measurements were taken from ChEMBL document CHEMBL4334522.
